We begin with a simple list: items and their reported Emax.
# measuredTarget: YAP-TEAD interaction (Homo sapiens, UniProt P28347)
# Construct: expressed in transfected cells; host or cells: HEK293 GripTite 293 MSR (Invitrogen R795-07)
# Sequence (P28347 whole entry): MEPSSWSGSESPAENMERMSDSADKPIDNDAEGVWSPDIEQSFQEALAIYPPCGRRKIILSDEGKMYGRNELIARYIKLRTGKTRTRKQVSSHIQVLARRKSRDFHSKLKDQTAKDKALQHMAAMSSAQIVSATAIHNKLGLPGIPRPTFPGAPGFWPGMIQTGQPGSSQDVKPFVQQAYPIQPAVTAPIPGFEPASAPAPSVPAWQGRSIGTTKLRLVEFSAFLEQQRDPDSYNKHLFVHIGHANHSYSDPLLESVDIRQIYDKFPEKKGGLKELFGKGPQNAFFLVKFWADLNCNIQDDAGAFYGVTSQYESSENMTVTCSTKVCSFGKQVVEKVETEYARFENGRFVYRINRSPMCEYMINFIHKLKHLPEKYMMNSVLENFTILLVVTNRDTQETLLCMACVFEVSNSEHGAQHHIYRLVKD
# methodSummary: Cell-based TEAD-GAL4 transactivation assay (luciferase reporter)
# testParameters: HEK293, 24 h, HEK293 cells transfected with TEAD1-Gal4, YAP mutant (S127A, S397A) and luciferase reporter, compounds 0.1 μM to 30 μM, read-out: TEAD-GAL4 Transactivation activity Max Act
Your answer should be a number followed by the unit of measure.

The examples below pair each entry with its known result.
COc1cc(/C=N/N(CC(C)C)c2ncnc3cc(C)sc23)ccc1B(O)O = 92%
CCN(/N=C/c1ccc2c(c1)COB2O)c1ncnc2c(OC)cccc12 = 81%
COCCCN(/N=C/c1ccc2c(c1)COB2O)c1ncnc2nc(SC)sc12 = 87%

(Q) Fill in the blank: the reported Emax of CCN(/N=C/c1ccc(B(O)O)c(OC)c1)c1ncnc2c(C)csc12 is ____.
(A) 58%

(Q) Similarly, COc1cnnc(N(C)/N=C/c2ccc3c(c2)COB3O)c1 ?
(A) 79%

(Q) Similarly, CCN(/N=C/c1ccc2c(c1)COB2O)c1ncnc2[nH]ccc12 ?
(A) 81%

(Q) Similarly, CN(/N=C/c1ccc2c(c1)COB2O)c1ncnc2c1cnn2C ?
(A) 86%

(Q) Similarly, Cc1csc2c(N(C)/N=C/c3ccc4c(c3)COB4O)ncnc12 ?
(A) 82%

(Q) Similarly, COc1cccc2c(N3N=C(c4ccc5c(c4)COB5O)CCC3C)ncnc12 (stereo not shown) ?
(A) 84%

(Q) Similarly, COCCN(/N=C/c1ccc(B(O)O)c(OC)c1)C1=NS(=O)(=O)c2ccccc21 ?
(A) 67%

---

# measuredTarget: YAP-TEAD interaction (Homo sapiens, UniProt P28347)
# Construct: expressed in transfected cells; host or cells: HEK293 GripTite 293 MSR (Invitrogen R795-07)
# methodSummary: Cell-based TEAD-GAL4 transactivation assay (luciferase reporter)
# testParameters: HEK293, 24 h, HEK293 cells transfected with TEAD1-Gal4, YAP mutant (S127A, S397A) and luciferase reporter, compounds 0.1 μM to 30 μM, read-out: TEAD-GAL4 Transactivation activity Max Act
We begin with a simple list: items and their reported Emax.
Answer format: numeric, % implied, no suffix.

The examples below pair each entry with its known result.
CC(C)CN(/N=C/c1ccc2c(c1)COB2O)C1=NS(=O)(=O)c2ccc(F)cc21 = 90
COc1cccc2c(N(C)/N=C/c3ccc4c(c3)COB4O)ncnc12 = 86
CC1OB(O)c2ccc(/C=N/N(C)C3=NS(=O)(=O)c4ccccc43)cc21 (stereo not drawn) = 81
CCN(/N=C/c1ccc2c(c1)COB2O)c1ncnc2c1ccn2C = 78

(Q) Kindly state the measured Emax obtained for COc1cc(OC)c2c(c1)C(N1N=C(c3ccc(B(O)O)c(OC)c3)CCC1C)=NS2(=O)=O (stereo not drawn) with YAP-TEAD interaction (Homo sapiens, UniProt P28347).
(A) 76

(Q) Similarly, CCN(/N=C/c1ccc2c(c1)COB2O)c1ncnc2nc(N(C)C)sc12 ?
(A) 90

(Q) Similarly, CCN(/N=C/c1ccc(B(O)O)c(OC)c1)c1ncnc2ccsc12 ?
(A) 63

(Q) Similarly, CN(/N=C/c1ccc2c(c1)COB2O)c1ncnc2c1[nH]c(=O)n2C ?
(A) 86

(Q) Similarly, CC1CCC(c2ccc3c(c2)COB3O)=NN1c1ncnc2c3c(sc12)CCCC3 (stereo not drawn) ?
(A) 94
